test: The compound was tested for binding activity towards Opioid receptor delta 1 in guinea pig brain membranes.
Starred links: 1 amine or outer side, 2 acyl side, 3 side chain; linkers in the order of their positions; H or OH if unused. Residues, ends and D or L forms follow the SMILES beside them. Ethylenediamine = C(CN[*:2])N[*:1]; GABA = NCCCC(=O)O
recorded_metric: Ki

>>> measured_value("NCCCC(=O)NCCNC(=O)[C@H](Cc1ccccc1)NC(=O)CNC(=O)CNC(=O)[C@@H](N)Cc1ccc(O)cc1 (H-YGGF-{Ethylenediamine-GABA})")
"10.1 µM"
>>> measured_value("NCCCC(=O)NCCN(CCNC(=O)[C@H](Cc1ccccc1)NC(=O)CNC(=O)CNC(=O)[C@@H](N)Cc1ccc(O)cc1)C(=O)CCCN (HELM PEPTIDE1{Y.G.G.F.[NCCCC(=O)NCCN(CCN[*:1])C(=O)CCCN]}$$$$V2.0)")
"22.7 µM"
>>> measured_value("NCCCC(=O)NCCN(CCN(CCNC(=O)[C@H](Cc1ccccc1)NC(=O)CNC(=O)CNC(=O)[C@@H](N)Cc1ccc(O)cc1)C(=O)CCCN)C(=O)CCCN (HELM PEPTIDE1{Y.G.G.F.[NCCCC(=O)NCCN(CCN(CCN[*:1])C(=O)CCCN)C(=O)CCCN]}$$$$V2.0)")
"> 10 µM"
>>> measured_value("NCCCC(=O)NCCCN(CCCNC(=O)[C@H](Cc1ccccc1)NC(=O)CNC(=O)CNC(=O)[C@@H](N)Cc1ccc(O)cc1)C(=O)CCCN (HELM PEPTIDE1{Y.G.G.F.[NCCCC(=O)NCCCN(CCCN[*:1])C(=O)CCCN]}$$$$V2.0)")
"8.43 µM"

q: Ki lookup needed for CC[C@H](C)[C@H](NC(=O)[C@H](CCCN=C(N)N)NC(=O)[C@H](CCCN=C(N)N)NC(=O)[C@H](CC(C)C)NC(=O)[C@H](Cc1ccccc1)NC(=O)CNC(=O)CNC(=O)[C@@H](N)Cc1ccc(O)cc1)C(=O)N[C@@H](CCCN=C(N)N)C(=O)N1CCC[C@H]1C(=O)N[C@@H](CCCCN)C(=O)N[C@@H](CC(C)C)C(=O)N[C@@H](CCCCN)C(=O)O [Dynorphin A (1-13)] , thanks.
a: 0.016 µM
